# mass density listing for each entry below
Conditions: 298.15 K; 101.33 kPa; Liquid; Vibrating tube method
Supply the numeric figure in kg/m3, leaving out any unit text.

{"molecule": "CCCCCCC [heptane]", "unit": "kg/m3", "mass density": 679.466}
{"molecule": "CCCCCCCCCCCCCCCC [hexadecane]", "unit": "kg/m3", "mass density": 771.15}
{"molecule": "CCCCCCCCn1cc[n+](C)c1.O=S(=O)([N-]S(=O)(=O)C(F)(F)F)C(F)(F)F", "unit": "kg/m3", "mass density": 1320.76}
{"molecule": "c1ccsc1 [thiophene]", "unit": "kg/m3", "mass density": 1058.5}

Which mass density value belongs to CCCCCC [hexane] ?
655.06

----------
Experiment: refractive index (Na D-line) (dimensionless)
Conditions: 298.15 K; 101.33 kPa; Liquid; Standard Abbe refractometry
# refractive index listing for each entry below
In your answer, state the number alone without any accompanying words.

{"compound.string": "CCCCCCC", "refractive index": 1.38517}

Which refractive index value belongs to CCCCCCCCn1cc[n+](C)c1.O=S(=O)([N-]S(=O)(=O)C(F)(F)F)C(F)(F)F ?
1.43331

Which refractive index value belongs to c1ccsc1 ?
1.52581

Which refractive index value belongs to CCCCCC ?
1.37287

Which refractive index value belongs to CCCCCCCCCCCCCCCC ?
1.43232

Numbers sourced from the NIST ThermoML archive (doi:10.1016/j.fluid.2007.10.010).
